target: CHO-K1/cannabinoid CB1 (hCB1R) (Homo sapiens, UniProt P21554); construct: expressed in transfected cells; host or cells: CHO-K1; experiment: Binding to the CB1 receptor ([3H]-SR141716A displacement); details: [3H]-SR141716A 0.5 nM; Ki from IC50 and Kd by Cheng-Prusoff; average of double determination; read-out: hCB1R; Bindung Ki
Sequence (P21554 whole entry): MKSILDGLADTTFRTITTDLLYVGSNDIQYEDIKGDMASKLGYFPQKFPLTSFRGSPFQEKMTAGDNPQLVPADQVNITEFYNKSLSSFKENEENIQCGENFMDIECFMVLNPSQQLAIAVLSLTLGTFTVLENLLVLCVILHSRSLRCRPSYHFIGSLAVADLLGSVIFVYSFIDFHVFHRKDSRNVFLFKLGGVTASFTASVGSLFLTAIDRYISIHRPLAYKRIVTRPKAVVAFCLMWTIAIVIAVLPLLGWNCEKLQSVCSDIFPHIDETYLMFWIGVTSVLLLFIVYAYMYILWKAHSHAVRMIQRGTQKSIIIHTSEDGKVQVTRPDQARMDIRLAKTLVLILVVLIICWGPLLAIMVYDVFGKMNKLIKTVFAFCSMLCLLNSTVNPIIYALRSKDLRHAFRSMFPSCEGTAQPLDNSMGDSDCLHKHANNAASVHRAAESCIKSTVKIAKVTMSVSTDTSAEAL
# Ki per record follows
valueType: Ki (µM)

compound: COC(=O)c1ccc(NC(=O)Nc2cc(F)ccc2CN2C(=O)N(c3ccc(C#N)c(C(F)(F)F)c3)C(=O)C2(C)C)nc1 [Example 42]
targetEntity: CHO-K1/cannabinoid CB1 (hCB1R) (Homo sapiens, UniProt P21554)
valueType: Ki
unitAnnotation: µM
valueObserved: 0.035
//
compound: CC1(C)C(=O)N(c2ccc(F)c(C(F)(F)F)c2)C(=O)N1Cc1ccc(F)cc1NC(=O)Nc1ccc(S(N)(=O)=O)cc1 [Example 24]
targetEntity: CHO-K1/cannabinoid CB1 (hCB1R) (Homo sapiens, UniProt P21554)
valueType: Ki
unitAnnotation: µM
valueObserved: 0.009
//
compound: CC1(C)C(=O)N(c2ccc(C#N)c(C(F)(F)F)c2)C(=O)N1Cc1ccc(F)cc1NC(=O)Nc1cc(Cl)nc(Cl)c1 [Example 21]
targetEntity: CHO-K1/cannabinoid CB1 (hCB1R) (Homo sapiens, UniProt P21554)
valueType: Ki
unitAnnotation: µM
valueObserved: 0.034
//
compound: CCS(=O)(=O)c1ccc(NC(=O)Nc2cc(F)ccc2CN2C(=O)N(c3ccc(C#N)c(C4CC4)c3)C(=O)C2(C)C)cc1 [Example 45]
targetEntity: CHO-K1/cannabinoid CB1 (hCB1R) (Homo sapiens, UniProt P21554)
valueType: Ki
unitAnnotation: µM
valueObserved: 0.006

* * *

molecular target: cannabinoid 1 receptor (hCB1R) (Homo sapiens, UniProt P21554); construct: expressed in transfected cells; host or cells: HEK293; experiment: In vitro functional assay with recombinant cells (FLIPR), CB1; type: cell-based; conditions: recombinant HEK293 cells expressing CB1 and G-protein; intracellular Ca2+ change after reference agonist, 20 min preincubation; read-out: hCB1R: FLIPR; IC50
Sequence (P21554 whole entry): as above
pIC50: −log10 of the molar value.
valueType: pIC50

compound: CC1(C)C(=O)N(c2ccc(F)c(C(F)(F)F)c2)C(=O)N1Cc1ccc(F)cc1NC(=O)Nc1ccc(S(=O)(=O)O)cc1 [Example 26]
targetEntity: cannabinoid 1 receptor (hCB1R) (Homo sapiens, UniProt P21554)
valueType: pIC50
valueObserved: 7.18
//
compound: CC1(C)C(=O)N(c2ccc(C#N)c(C3CC3)c2)C(=O)N1Cc1ccc(F)cc1NC(=O)Nc1ccc(S(N)(=O)=O)cc1
targetEntity: cannabinoid 1 receptor (hCB1R) (Homo sapiens, UniProt P21554)
valueType: pIC50
valueObserved: 8.05
//
compound: CSc1ccc(NC(=O)Nc2cc(F)ccc2CN2C(=O)N(c3ccc(C#N)c(C4CC4)c3)C(=O)C2(C)C)cc1
targetEntity: cannabinoid 1 receptor (hCB1R) (Homo sapiens, UniProt P21554)
valueType: pIC50
valueObserved: 7.92
//
compound: COc1cc(CN2C(=O)N(c3ccc(F)c(C(F)(F)F)c3)C(=O)C2(C)C)c(NC(=O)Nc2ccc(S(N)(=O)=O)cc2)cc1OC
targetEntity: cannabinoid 1 receptor (hCB1R) (Homo sapiens, UniProt P21554)
valueType: pIC50
valueObserved: 7.41
//
compound: CC1(C)C(=O)N(c2ccc(C#N)c(C(F)(F)F)c2)C(=O)N1Cc1ccc(F)cc1NC(=O)Nc1ccc(O)cc1
targetEntity: cannabinoid 1 receptor (hCB1R) (Homo sapiens, UniProt P21554)
valueType: pIC50
valueObserved: 8.40
//
compound: COC(=O)c1ccc(NC(=O)Nc2cc(F)ccc2CN2C(=O)N(c3ccc(C#N)c(C(F)(F)F)c3)C(=O)C2(C)C)cc1
targetEntity: cannabinoid 1 receptor (hCB1R) (Homo sapiens, UniProt P21554)
valueType: pIC50
valueObserved: 8.00
//
compound: CC1(C)C(=O)N(c2ccc(F)c(C(F)(F)F)c2)C(=O)N1Cc1ccc(F)cc1NC(=O)Nc1ccc(C(=O)NS(=O)(=O)C(F)(F)F)cc1
targetEntity: cannabinoid 1 receptor (hCB1R) (Homo sapiens, UniProt P21554)
valueType: pIC50
valueObserved: 7.34
//
compound: CCOc1ccc(NC(=O)Nc2ccccc2CN2C(=O)N(c3ccc(C#N)c(C(F)(F)F)c3)C(=O)C2(C)C)cc1
targetEntity: cannabinoid 1 receptor (hCB1R) (Homo sapiens, UniProt P21554)
valueType: pIC50
valueObserved: 7.28
//
compound: CC1(C)C(=O)N(c2ccc(F)c(C(F)(F)F)c2)C(=O)N1Cc1ccc(Cl)cc1NC(=O)Nc1ccc(S(N)(=O)=O)cc1
targetEntity: cannabinoid 1 receptor (hCB1R) (Homo sapiens, UniProt P21554)
valueType: pIC50
valueObserved: 7.96
//
compound: CC1(C)C(=O)N(c2ccc(C#N)c(C3CC3)c2)C(=O)N1Cc1cc(C(F)(F)F)ccc1NC(=O)Nc1ccc(S(C)(=O)=O)cc1
targetEntity: cannabinoid 1 receptor (hCB1R) (Homo sapiens, UniProt P21554)
valueType: pIC50
valueObserved: 8.00
//
compound: CC1(C)C(=O)N(c2ccc(C#N)c(C(F)(F)F)c2)C(=O)N1Cc1ccccc1NC(=O)Nc1ccc(S(=O)(=O)O)cc1
targetEntity: cannabinoid 1 receptor (hCB1R) (Homo sapiens, UniProt P21554)
valueType: pIC50
valueObserved: 6.66
//
compound: CC1(C)C(=O)N(c2ccc(C#N)c(C(F)(F)F)c2)C(=O)N1Cc1ccccc1NC(=O)Nc1ccc(C(=O)O)cc1
targetEntity: cannabinoid 1 receptor (hCB1R) (Homo sapiens, UniProt P21554)
valueType: pIC50
valueObserved: 6.96
//
compound: CC1(C)C(=O)N(c2ccc(F)c(C(F)(F)F)c2)C(=O)N1Cc1ccc(F)cc1NC(=O)Nc1ccc(NS(C)(=O)=O)cc1
targetEntity: cannabinoid 1 receptor (hCB1R) (Homo sapiens, UniProt P21554)
valueType: pIC50
valueObserved: 7.49
//
compound: CC1(C)C(=O)N(c2ccc(C#N)c(C3CC3)c2)C(=O)N1Cc1cc(Cl)ccc1NC(=O)Nc1ccc(S(C)(=O)=O)cc1
targetEntity: cannabinoid 1 receptor (hCB1R) (Homo sapiens, UniProt P21554)
valueType: pIC50
valueObserved: 8.22
//
compound: CC1(C)C(=O)N(c2ccc(C#N)c(C(F)(F)F)c2)C(=O)N1Cc1ccc(F)cc1NC(=O)Nc1ccc(S(N)(=O)=O)cc1
targetEntity: cannabinoid 1 receptor (hCB1R) (Homo sapiens, UniProt P21554)
valueType: pIC50
valueObserved: 8.05
//
compound: CC1(C)C(=O)N(c2ccc(C#N)c(C(F)(F)F)c2)C(=O)N1Cc1ccc(F)cc1NC(=O)Nc1ccc(Cl)nc1
targetEntity: cannabinoid 1 receptor (hCB1R) (Homo sapiens, UniProt P21554)
valueType: pIC50
valueObserved: 7.80
//
compound: CC1(C)C(=O)N(c2ccc(F)c(C(F)(F)F)c2)C(=O)N1Cc1ccc(F)cc1NC(=O)Nc1ccc(C(=O)NS(=O)(=O)Cc2ccccc2)cc1
targetEntity: cannabinoid 1 receptor (hCB1R) (Homo sapiens, UniProt P21554)
valueType: pIC50
valueObserved: 7.41
//
compound: CC1(C)C(=O)N(c2ccc(C#N)c(C3CC3)c2)C(=O)N1Cc1ccc(F)cc1NC(=O)Nc1ccc(S(=O)(=O)O)cc1
targetEntity: cannabinoid 1 receptor (hCB1R) (Homo sapiens, UniProt P21554)
valueType: pIC50
valueObserved: 7.16
//
compound: CC1(C)C(=O)N(c2ccc(C#N)c(C3CC3)c2)C(=O)N1Cc1ccc(F)cc1NC(=O)Nc1ccc(S(=O)(=O)CC(=O)O)cc1
targetEntity: cannabinoid 1 receptor (hCB1R) (Homo sapiens, UniProt P21554)
valueType: pIC50
valueObserved: 7.60
//
compound: CC1(C)C(=O)N(c2ccc(C#N)c(C(F)(F)F)c2)C(=O)N1Cc1ccc(F)cc1NC(=O)Nc1ccc(SCC(=O)O)cc1
targetEntity: cannabinoid 1 receptor (hCB1R) (Homo sapiens, UniProt P21554)
valueType: pIC50
valueObserved: 7.89
//
compound: CC1(C)C(=O)N(c2ccc(C#N)c(C(F)(F)F)c2)C(=O)N1Cc1ccc(F)cc1NC(=O)Nc1ccc(S(C)(=O)=O)cc1
targetEntity: cannabinoid 1 receptor (hCB1R) (Homo sapiens, UniProt P21554)
valueType: pIC50
valueObserved: 8.05
//
compound: CC1(C)C(=O)N(c2ccc(F)c(C(F)(F)F)c2)C(=O)N1Cc1ccc(F)cc1NC(=O)Nc1ccc(S(=O)(=O)O)cc1 [Example 25]
targetEntity: cannabinoid 1 receptor (hCB1R) (Homo sapiens, UniProt P21554)
valueType: pIC50
valueObserved: 7.24
